method: Pharmacokinetic study in rats following intravenous administration
Type: in vivo
experimental.setup: male, Sprague-Dawley, rat, plasma, SD rats, single dose 2.5 mg/kg
Protocol: Male SD rats weighing from 210 to 240 g were used for the PK study. All animal experiments were performed in accordance with institutional guidelines and were approved by the University Committee on Use and Care of Animals, Shenyang Pharmaceutical University. […] Serial blood samples (0.2 mL) were obtained at 0.08, 0.17, 0.25, 0.5, 0.75, 1, 1.5, 2, 3, 4, 6, 8, 10 and 12 h after intravenous administration. All samples were placed into heparinised tubes. […]
metric.name: AUC(0-inf) (ng·h/mL)
A number alone suffices; assume ng·h/mL.

## Task For the compound "Nc1ncn([C@@H]2O[C@H](CO)[C@@H](O)[C@H]2O)c(=O)n1" , what AUC(0-inf) is on record?
## Result 2000
